- system_tested: acetylcholinesterase (AChE) (Electrophorus electricus, UniProt O42275)
- Sequence (O42275 24-633): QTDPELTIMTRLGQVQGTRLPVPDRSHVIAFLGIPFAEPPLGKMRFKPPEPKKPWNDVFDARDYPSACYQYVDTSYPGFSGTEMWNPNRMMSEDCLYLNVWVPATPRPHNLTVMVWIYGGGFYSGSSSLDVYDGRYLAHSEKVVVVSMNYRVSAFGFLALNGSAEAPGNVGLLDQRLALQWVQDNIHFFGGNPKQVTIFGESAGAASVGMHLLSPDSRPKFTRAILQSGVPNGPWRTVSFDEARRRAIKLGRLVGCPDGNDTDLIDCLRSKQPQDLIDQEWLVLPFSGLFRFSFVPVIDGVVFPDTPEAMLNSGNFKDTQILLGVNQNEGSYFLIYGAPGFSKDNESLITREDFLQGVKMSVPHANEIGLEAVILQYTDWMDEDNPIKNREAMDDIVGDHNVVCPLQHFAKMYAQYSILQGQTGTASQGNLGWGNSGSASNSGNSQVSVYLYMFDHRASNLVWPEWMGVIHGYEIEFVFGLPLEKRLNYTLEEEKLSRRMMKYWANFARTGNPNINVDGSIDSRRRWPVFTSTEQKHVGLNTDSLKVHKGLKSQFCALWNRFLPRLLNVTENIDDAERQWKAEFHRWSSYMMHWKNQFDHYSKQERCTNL
quantity: pIC50
# log scale: pIC50 equals minus log10 of the concentration in mol/L

Enquiry: Recorded pIC50 of C[C@@H]1C[C@H]2OC(=O)[C@@]3(C)CCC[C@@](C)([C@@H]23)[C@@]1(O)CCc1ccoc1 [marrubiin] , please.
Return: 4.28
